Test: protein stability index of a GFP-peptide fusion (yeast GPS) (PSI 1-4); higher = more stable; sorted into four equal gates, so the index is relative within each strain
Conditions: pdr5∆
For each record, write down the corresponding protein stability index.
One number for each entry.

Illustrative cases are given below, each with its answer.
[
  {
    "sequence-record": "ESEKLVTPEDVMTISSL [RPC82]",
    "protein stability index": 3.13
  },
  {
    "sequence-record": "ADCQAELTKTKSSLYSA [YIL149C/MLP2]",
    "protein stability index": 2.59
  },
  {
    "sequence-record": "RVVRPKSLDAETEAEED [RPO21]",
    "protein stability index": 1.21
  },
  {
    "sequence-record": "IEEKLSSFSKKTLTEEV [YIL149C/MLP2]",
    "protein stability index": 3.07
  },
  {
    "sequence-record": "PDDMVEINSVGNPGLPQ [ITC1]",
    "protein stability index": 3.26
  }
]

Please give protein stability index, item by item, for the list that follows.
1. DSESDSDSETNHKSKDN [SKP1]
2. CLENARSQISEKDAKIN [SIR4]
3. LSHENNVMLEKIKDNKE [RPT5]
4. CILYDADESKMAKLNEC [RET1]
5. EYWAQRKKKFVLDVDPK [ISW2]
6. MKLVNFLKKLRNEQVTI [SMD1]

A:
1: 3.04; 2: 3.23; 3: 2.9; 4: 1.99; 5: 2.48; 6: 1.93

Please give protein stability index, item by item, for the list that follows.
1. PTKAAQRARDQDSIDIS [GAL11]
2. RNQVQTENVAQARIILN [YGR119C/NUP57]

A:
3.16
2.9

Q: Bench note: what protein stability index did LRKNKLGYARFILLDRL [SMC4] show?
A: 1.25

----------
Test: protein stability index of a GFP-peptide fusion (yeast GPS) (PSI 1-4); higher = more stable; sorted into four equal gates, so the index is relative within each strain
Conditions: san1∆
Parameter threshold = 3. Response is met when protein stability index meets or exceeds it, else not met.

Solved cases below.
[
  {
    "sequence-record": "MNNETSGKETASAPLCS [DLS1]",
    "qualitative-label": "met"
  },
  {
    "sequence-record": "LALALGILYMGQGEQVD [RPN1]",
    "qualitative-label": "not met"
  },
  {
    "sequence-record": "LLIDQFSPVISQSLTSI [SWI1]",
    "qualitative-label": "not met"
  }
]

Q: Dear colleague, could you confirm whether WIVVLPWFWLLPLWHLL [POP1] has protein stability index at or above 3?
A: not met

Q: Lookup LKFFLVDENETVLESLG [LIN1]
A: not met

Q: Lookup EDEDDDDDDDEDEEEEE [QCR6]
A: met

----------
Assay: protein stability index of a GFP-peptide fusion (yeast GPS) (PSI 1-4); higher = more stable; sorted into four equal gates, so the index is relative within each strain
Conditions: san1∆
For each record, write down the corresponding protein stability index.

Illustrative cases are given below, each with its answer.
[
  {
    "sequence-record": "YDLMAPNGHISTKKIQV [YMR129W/POM152]",
    "protein stability index": 1.5
  },
  {
    "sequence-record": "FCPIVEEIVSNSSRFSD [YCS4]",
    "protein stability index": 1.68
  },
  {
    "sequence-record": "GTLEGHNGWVTSLATSA [ASC1]",
    "protein stability index": 1.74
  },
  {
    "sequence-record": "MVLFNIYDDWLDRISSY [PRP8]",
    "protein stability index": 2.19
  },
  {
    "sequence-record": "MAILLLYNDADVLTLEN [CDC53]",
    "protein stability index": 2.5
  },
  {
    "sequence-record": "MKPSEILSLIEEAAGTK [SMC2]",
    "protein stability index": 3.22
  },
  {
    "sequence-record": "EKIWFAISKENLCGDIS [SIR3]",
    "protein stability index": 2.27
  },
  {
    "sequence-record": "PTPSVKTEPVGTGLQSY [RPC53]",
    "protein stability index": 3.16
  },
  {
    "sequence-record": "KDYHTLANNVESKLRDD [RPS18A]",
    "protein stability index": 3.39
  },
  {
    "sequence-record": "TTAVEDEDDDLDEDDVN [RPB4]",
    "protein stability index": 3.55
  }
]

Please give protein stability index, item by item, for the list that follows.
1. PNMSICIFGDAFDVDRA [RPL1A]
2. SFLFSAIPLQQVLSQSA [SWI1]
3. KREEKAMTIYWDDHTKK [CDC53]
4. HFTEIKLNKVDKNELQQ [SIR3]
5. YSAAKKIPDTYTANTSA [YAR002W/NUP60]
6. MINDENYIINDIKKNNK [SRB8]
7. NVSDEQLSNWQKIRNSE [ITC1]

A:
1.78
1.28
3.45
3
2.2
3.42
2.94

----------
Experiment: protein stability index of a GFP-peptide fusion (yeast GPS) (PSI 1-4); higher = more stable; sorted into four equal gates, so the index is relative within each strain
Details: pdr5∆
Parameter threshold = 3. Response is Criterion met when protein stability index meets or exceeds it, else Criterion not met.

[
  {
    "sequence-record": "AKRIRVSHHATTFTHCE [RPB2]",
    "qualitative-label": "Criterion met"
  },
  {
    "sequence-record": "PSTGGVKKPHRYKPGTV [HHT1]",
    "qualitative-label": "Criterion not met"
  },
  {
    "sequence-record": "KLWAEIIVKILYYRPHI [GRR1]",
    "qualitative-label": "Criterion not met"
  },
  {
    "sequence-record": "ATDPVAAKPDNLANFSN [SWP82]",
    "qualitative-label": "Criterion met"
  },
  {
    "sequence-record": "WRKDAQGNYPTTSYIKE [DPB4]",
    "qualitative-label": "Criterion not met"
  }
]

Q: Dear colleague, could you confirm whether CSFAVTKSSLNDLDYDL [YML103C/NUP188] has protein stability index at or above 3?
A: Criterion met

Q: Lookup EQHNLVKKGPVRLPTKV [RPS20]
A: Criterion not met

Q: Lookup DEEAAGASTVMKTKTIN [PRP8]
A: Criterion met

Q: Lookup IYSPEGLRLDGRRWNEL [SKI6]
A: Criterion not met

Q: Lookup PLDSKDENFASVSPAGP [SNF2]
A: Criterion met

Q: Lookup SVKGKVVIDAFRLIDTG [RPN11]
A: Criterion not met

Q: Lookup VLDSMTKEELESDGRMF [SRP54]
A: Criterion met

Q: Lookup DDDQIESLKKSPIFEVL [ARP9]
A: Criterion met

Q: Lookup FPRTRFEAQIDSVEFIF [RPN10]
A: Criterion not met

Q: Lookup AAGANVDNVWADVYAKA [RPP1B]
A: Criterion met

Q: Lookup SFIFQYYGLVIDLLLLG [PRP8]
A: Criterion not met

Q: Lookup LKKIASIPNLFPTDLEI [SWI1]
A: Criterion not met

Q: Lookup DDLALPYQHPPNIFPNL [ITC1]
A: Criterion met

Q: Lookup VYPITLSTDATSADLKS [UBP6]
A: Criterion not met

Q: Lookup NKITNQGVTCLHLAVGK [NAS6]
A: Criterion not met

Q: Lookup TKIPQIGDKFASRHGQK [RPB2]
A: Criterion not met

----------
Test: protein stability index of a GFP-peptide fusion (yeast GPS) (PSI 1-4); higher = more stable; sorted into four equal gates, so the index is relative within each strain
Conditions: san1∆
outcome-measure: protein stability index
Numbers only.

[
  {
    "sequence-record": "PLFIVEDDESLGHKELK [RPB2]",
    "value-observed": 2.77
  },
  {
    "sequence-record": "GLLSQAIGCIERSDLLP [YJR042W/NUP85]",
    "value-observed": 2.43
  },
  {
    "sequence-record": "NGEIKGENIDADNDGPR [SNF2]",
    "value-observed": 3.49
  }
]

Please give protein stability index, item by item, for the list that follows.
1. FSERAAMFAALQQKQQQ [SWI1]
2. DIRDSSCQGNVIYRNSL [YMR129W/POM152]
3. AIIVAGVQSNGDQFLRY [PRE4]
4. MYPSPTGVMIGIDLAYN [PRP8]
5. TFGINLIYVNPFMLQWG [FAS1]
6. DEAEGRFEVINNETEQL [SMC1]
7. ATSQYLKQDLKKISSFK [YGL172W/NUP49]

A:
1: 2.05; 2: 3.38; 3: 2.4; 4: 1.97; 5: 2.46; 6: 3.04; 7: 3.04

Please give protein stability index, item by item, for the list that follows.
1. DSNMDSISSVVSEDLLD [RPN4]
2. GVEQLHYTGISQSACRE [SSN3]

A:
1. 2.76
2. 2.66

Please give protein stability index, item by item, for the list that follows.
1. NLTAGIIVAGYDDKNKG [PRE3]
2. GGPWFTDGELDIEFINS [RPC34]
3. LEYYAMLSKTKVYYFQG [RPL30]
4. AVNSIMALKFVSIKFTN [ECM29]
5. EGIEIYDRKKLPRKEVD [RPC11]
6. DYVASLNELYQTQQDLP [NSL1]

A:
1. 2.53
2. 2.55
3. 2.09
4. 2.87
5. 1.91
6. 3.12

Please give protein stability index, item by item, for the list that follows.
1. TKIGAKRIHSVRTRGGN [RPS8A]
2. FANNLKSAISNNFRESD [SIR4]
3. GSKISSNDLDKFFQKKI [YGL172W/NUP49]

A:
1: 2.93; 2: 2.56; 3: 1.7
